System: Finegoldia magna
Assay: Antimicrobial activity against Finegoldia magna after 48 hrs by agar dilution method
Assay type: functional
Lab note - cut at 0.5 µg/mL for MIC50: T if strictly below, F if not.

In plain terms, does O=C(N[C@H](CO)[C@H](O)c1ccc([N+](=O)[O-])cc1)C(Cl)Cl come in under 0.5 µg/mL for MIC50?
F

Consider next the compound C[C@@H](O)[C@H]1C(=O)N2C(C(=O)O)=C(SCCNC=N)C[C@H]12 [IMIPENEM ANHYDROUS] in the same way.
T

// repeat for CCC[C@@H]1C[C@@H](C(=O)N[C@@H]([C@H]2O[C@H](SC)[C@H](O)[C@@H](O)[C@H]2O)[C@H](C)Cl)N(C)C1 and report
T

Next record, please: CCN1CCN(C(=O)N[C@@H](C(=O)N[C@@H]2C(=O)N3[C@@H]2SC(C)(C)[C@@H]3C(=O)O)c2ccccc2)C(=O)C1=O
T

Would you kindly repeat that for CO[C@@]1(NC(=O)C2SC(=C(C(N)=O)C(=O)O)S2)C(=O)N2C(C(=O)O)=C(CSc3nnnn3C)CS[C@@H]21 (some centres undefined) ?
F

Now for another entry.
Does this compound meet the criterion MIC50 < 0.5 µg/mL? C[C@@H](O)[C@H]1C(=O)N2C(C(=O)O)=C(S[C@@H]3CN[C@H](C(=O)N(C)C)C3)[C@H](C)[C@H]12
T
